molecular target: PRC2 enzyme (Homo sapiens (Human), UniProt O75530); assay: PRC2 enzyme activity, TR-FRET method; format: biochemical
Sequence (O75530 whole entry): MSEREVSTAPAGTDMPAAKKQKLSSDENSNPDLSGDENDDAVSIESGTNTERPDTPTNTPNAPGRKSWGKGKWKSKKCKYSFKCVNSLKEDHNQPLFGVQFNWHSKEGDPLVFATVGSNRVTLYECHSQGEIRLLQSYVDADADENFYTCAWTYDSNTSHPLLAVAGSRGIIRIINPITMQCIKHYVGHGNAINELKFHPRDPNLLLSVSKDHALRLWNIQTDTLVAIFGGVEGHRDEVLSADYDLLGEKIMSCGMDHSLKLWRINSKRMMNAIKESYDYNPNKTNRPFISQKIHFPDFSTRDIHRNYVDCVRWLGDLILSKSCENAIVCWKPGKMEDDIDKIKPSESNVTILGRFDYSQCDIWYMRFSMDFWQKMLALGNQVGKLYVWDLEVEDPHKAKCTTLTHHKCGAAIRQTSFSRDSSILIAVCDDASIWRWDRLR
Sequence (Q15910 whole entry partner): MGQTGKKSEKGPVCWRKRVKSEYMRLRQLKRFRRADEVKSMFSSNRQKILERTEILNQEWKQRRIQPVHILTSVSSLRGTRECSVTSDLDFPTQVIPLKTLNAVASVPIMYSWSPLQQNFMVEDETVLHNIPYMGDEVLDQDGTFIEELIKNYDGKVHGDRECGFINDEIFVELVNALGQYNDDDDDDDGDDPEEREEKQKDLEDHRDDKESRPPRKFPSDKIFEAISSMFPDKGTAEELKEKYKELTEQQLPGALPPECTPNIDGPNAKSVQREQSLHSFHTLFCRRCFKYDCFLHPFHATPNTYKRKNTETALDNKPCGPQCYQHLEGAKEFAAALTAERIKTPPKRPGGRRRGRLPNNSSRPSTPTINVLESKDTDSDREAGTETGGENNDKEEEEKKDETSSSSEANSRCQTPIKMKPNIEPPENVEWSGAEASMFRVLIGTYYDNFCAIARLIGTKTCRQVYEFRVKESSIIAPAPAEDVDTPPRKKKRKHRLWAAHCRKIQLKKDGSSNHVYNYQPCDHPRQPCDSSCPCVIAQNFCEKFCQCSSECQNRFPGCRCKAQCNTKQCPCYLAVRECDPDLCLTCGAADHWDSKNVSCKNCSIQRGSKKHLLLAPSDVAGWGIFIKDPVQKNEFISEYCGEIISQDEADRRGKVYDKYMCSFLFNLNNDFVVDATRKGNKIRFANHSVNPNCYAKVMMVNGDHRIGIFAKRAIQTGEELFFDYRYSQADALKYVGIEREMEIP
Sequence (Q15022 whole entry partner): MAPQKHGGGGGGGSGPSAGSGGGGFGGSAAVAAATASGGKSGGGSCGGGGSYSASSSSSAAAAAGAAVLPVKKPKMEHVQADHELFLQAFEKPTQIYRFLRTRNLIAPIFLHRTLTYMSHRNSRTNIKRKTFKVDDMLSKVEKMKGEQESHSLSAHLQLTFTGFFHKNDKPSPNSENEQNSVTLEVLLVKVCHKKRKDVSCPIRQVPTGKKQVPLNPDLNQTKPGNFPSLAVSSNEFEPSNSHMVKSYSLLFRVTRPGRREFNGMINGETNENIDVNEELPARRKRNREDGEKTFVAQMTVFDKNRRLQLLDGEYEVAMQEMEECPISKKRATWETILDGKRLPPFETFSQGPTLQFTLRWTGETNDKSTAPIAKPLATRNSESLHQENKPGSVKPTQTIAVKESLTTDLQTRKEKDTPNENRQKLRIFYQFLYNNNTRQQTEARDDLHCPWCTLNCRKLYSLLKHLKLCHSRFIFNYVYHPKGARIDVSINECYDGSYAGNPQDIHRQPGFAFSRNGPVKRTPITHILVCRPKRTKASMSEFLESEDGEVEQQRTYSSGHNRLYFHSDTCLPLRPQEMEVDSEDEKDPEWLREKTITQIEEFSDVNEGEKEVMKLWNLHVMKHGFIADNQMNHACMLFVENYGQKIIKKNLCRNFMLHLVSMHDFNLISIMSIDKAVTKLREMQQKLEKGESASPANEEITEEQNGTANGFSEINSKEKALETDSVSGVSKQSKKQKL
ENDPOINT: IC50 (nM)

Answered cases to consult:
Lookup: Consider the molecule O=S1(=O)CCC(c2cnc(NCc3c(F)ccc4c3CCO4)n3cnnc23)CC1 [SL-ZYE-34] and give its recorded IC50.
Found: 3.2

Lookup: Consider the molecule CC1C=C(c2cnc(NCc3c(F)ccc4c3CCO4)n3cnnc23)CC(C)O1 (stereo not drawn) [SL-ZYE-24] and give its recorded IC50.
Found: 8.3

Lookup: Consider the molecule CC1(C)C=C(c2cnc(NCc3c(F)ccc4c3CCO4)n3cnnc23)CC(C)(C)O1 [SL-ZYE-195] and give its recorded IC50.
Found: 22.3

Lookup: Consider the molecule CN1CC=C(c2cnc(NCc3c(F)ccc4c3CCO4)n3cnnc23)CC1 [SL-E23] and give its recorded IC50.
Found: 4.7

I = Cc1ccc(S(=O)(=O)N2CC=C(c3cnc(NCc4c(F)ccc5c4CCO5)n4cnnc34)CC2)cc1 [E-Y14]
II = C1=C(c2cnc(NCc3cccc4c3CCO4)n3cnnc23)CCOC1 [SL-ZYE-11]
Lookup: Between the entries labeled I and II , whose measured IC50 is lower? Your choice should be expressed through its label.
Found: II
(II: 17.9 nM, I: 101 nM)

###

experiment: Liver microsomal stability (human); format: in vitro ADME; conditions: human, liver microsomes, pH 7.4, human liver microsomes; read-out: Half life T-half
ENDPOINT: half-life (h)

Answered cases to consult:
Lookup: Consider the compound CC(=O)N1CC=C(c2cnc(NCc3c(F)ccc4c3CCO4)n3cnnc23)CC1 [E-Y15] and give its recorded half-life.
Found: 2.1

Lookup: Consider the compound O=C(C1CCOCC1)N1CC=C(c2cnc(NCc3c(F)ccc4c3CCO4)n3cnnc23)CC1 [E-Y43] and give its recorded half-life.
Found: 1.83

I = Fc1ccc2c(c1CNc1ncc(C3=CCOCC3)c3nncn13)CCO2 [E-Y1]
II = CN(C)CC(=O)N1CC=C(c2cnc(NCc3c(F)ccc4c3CCO4)n3cnnc23)CC1 [E-Y54]
Lookup: Select one: I or II . Criterion: greater recorded half-life. Your choice should be expressed through its label.
Found: II

a = CC(=O)N1CCC(c2cnc(NCc3c(F)ccc4c3CCO4)n3cnnc23)CC1 [E-Y50]
b = O=C(CN1CCOCC1)N1CC=C(c2cnc(NCc3c(F)ccc4c3CCO4)n3cnnc23)CC1 [E-Y40]
Lookup: Select one: a or b . Criterion: greater recorded half-life. Your choice should be expressed through its label.
Found: a

###

test: Oral pharmacokinetics in rats; assay type: in vivo; conditions: male, SD, plasma, rat, intragastric, 3 mg/kg, read-out: Half life T1/2 (converted)
ENDPOINT: half-life (h)

Answered cases to consult:
Lookup: Consider the compound Fc1ccc2c(c1CNc1ncc(C3CCOCC3)c3nncn13)CCO2 [E-Y47] and give its recorded half-life.
Found: 2.56

Lookup: Consider the compound Fc1ccc2c(c1CNc1ncc(C3=CCCOCC3)c3nncn13)CCO2 [SL-ZYE-07] and give its recorded half-life.
Found: 3.77

Lookup: Consider the compound CS(=O)(=O)c1ccc(-c2cnc(NCc3ccco3)n3cnnc23)cc1 [EED226, reference compound] and give its recorded half-life.
Found: 1.63

P = CS(=O)(=O)N1CC=C(c2cnc(NCc3c(F)ccc4c3CCO4)n3cnnc23)CC1 [E-Y13]
Q = Fc1ccc2c(c1CNc1ncc(C3=CCOCC3)c3nncn13)CCO2 [E-Y1]
Lookup: Between the entries labeled P and Q , whose measured half-life is lower? Your choice should be expressed through its label.
Found: P

###

experiment: Liver microsomal stability (mouse); type: in vitro ADME; details: mouse liver microsomes
ENDPOINT: Metabolic bioavailability MF % (%)

Answered cases to consult:
Lookup: Consider the compound O=C(C1CCOCC1)N1CC=C(c2cnc(NCc3c(F)ccc4c3CCO4)n3cnnc23)CC1 [E-Y43] and give its recorded Metabolic bioavailability MF %.
Found: 21.6

Lookup: Consider the compound CC(=O)N1CCC(c2cnc(NCc3c(F)ccc4c3CCO4)n3cnnc23)CC1 [E-Y50] and give its recorded Metabolic bioavailability MF %.
Found: 76.5

Lookup: Consider the compound Fc1ccc2c(c1CNc1ncc(C3CCOCC3)c3nncn13)CCO2 [E-Y47] and give its recorded Metabolic bioavailability MF %.
Found: 72.0

1 = CS(=O)(=O)N1CC=C(c2cnc(NCc3c(F)ccc4c3CCO4)n3cnnc23)CC1 [E-Y13]
2 = CN(C)CC(=O)N1CC=C(c2cnc(NCc3c(F)ccc4c3CCO4)n3cnnc23)CC1 [E-Y54]
Lookup: Select one: 1 or 2 . Criterion: greater recorded Metabolic bioavailability MF %. Your choice should be expressed through its label.
Found: 1

I = Fc1ccc2c(c1CNc1ncc(C3=CCOCC3)c3nncn13)CCO2 [E-Y1]
II = CC(=O)N1CC=C(c2cnc(NCc3c(F)ccc4c3CCO4)n3cnnc23)CC1 [E-Y15]
Lookup: Select one: I or II . Criterion: greater recorded Metabolic bioavailability MF %. Your choice should be expressed through its label.
Found: I

A = CN(C)CC(=O)N1CC=C(c2cnc(NCc3c(F)ccc4c3CCO4)n3cnnc23)CC1 [E-Y54-H]
B = O=C(CN1CCOCC1)N1CC=C(c2cnc(NCc3c(F)ccc4c3CCO4)n3cnnc23)CC1 [E-Y40]
Lookup: Select one: A or B . Criterion: greater recorded Metabolic bioavailability MF %. Your choice should be expressed through its label.
Found: A

###

assay: Liver microsomal stability (rat); format: in vitro ADME; details: rat liver microsomes
ENDPOINT: Clearance rate in vivo Clint In Vivo Extpl (mL/min)

Answered cases to consult:
Lookup: Consider the compound O=C(CN1CCOCC1)N1CC=C(c2cnc(NCc3c(F)ccc4c3CCO4)n3cnnc23)CC1 and give its recorded Clearance rate in vivo Clint In Vivo Extpl.
Found: 59.6

Lookup: Consider the compound CN(C)CC(=O)N1CC=C(c2cnc(NCc3c(F)ccc4c3CCO4)n3cnnc23)CC1 [E-Y54-H] and give its recorded Clearance rate in vivo Clint In Vivo Extpl.
Found: 4.26

P = O=C(C1CCOCC1)N1CC=C(c2cnc(NCc3c(F)ccc4c3CCO4)n3cnnc23)CC1
Q = CS(=O)(=O)N1CC=C(c2cnc(NCc3c(F)ccc4c3CCO4)n3cnnc23)CC1
Lookup: Select one: P or Q . Criterion: greater recorded Clearance rate in vivo Clint In Vivo Extpl. Your choice should be expressed through its label.
Found: P

A = CC(=O)N1CC=C(c2cnc(NCc3c(F)ccc4c3CCO4)n3cnnc23)CC1
B = CC(=O)N1CCC(c2cnc(NCc3c(F)ccc4c3CCO4)n3cnnc23)CC1
Lookup: Between the entries labeled A and B , whose measured Clearance rate in vivo Clint In Vivo Extpl is lower? Your choice should be expressed through its label.
Found: B

A = CN(C)CC(=O)N1CC=C(c2cnc(NCc3c(F)ccc4c3CCO4)n3cnnc23)CC1 [E-Y54]
B = Fc1ccc2c(c1CNc1ncc(C3=CCOCC3)c3nncn13)CCO2
Lookup: Between the entries labeled A and B , whose measured Clearance rate in vivo Clint In Vivo Extpl is lower? Your choice should be expressed through its label.
Found: A
(A: 10.0 mL/min, B: 15.9 mL/min)

###

assay: Liver microsomal stability (human); format: in vitro ADME; conditions: human liver microsomes
ENDPOINT: Clearance rate in vivo Clint In Vivo Extpl (mL/min)

Answered cases to consult:
Lookup: Consider the compound CC(=O)N1CC=C(c2cnc(NCc3c(F)ccc4c3CCO4)n3cnnc23)CC1 [E-Y15] and give its recorded Clearance rate in vivo Clint In Vivo Extpl.
Found: 1280

Lookup: Consider the compound Fc1ccc2c(c1CNc1ncc(C3=CCOCC3)c3nncn13)CCO2 [E-Y1] and give its recorded Clearance rate in vivo Clint In Vivo Extpl.
Found: 1613

Lookup: Consider the compound CN(C)CC(=O)N1CC=C(c2cnc(NCc3c(F)ccc4c3CCO4)n3cnnc23)CC1 [E-Y54] and give its recorded Clearance rate in vivo Clint In Vivo Extpl.
Found: 188

Lookup: Consider the compound CS(=O)(=O)N1CC=C(c2cnc(NCc3c(F)ccc4c3CCO4)n3cnnc23)CC1 [E-Y13] and give its recorded Clearance rate in vivo Clint In Vivo Extpl.
Found: 1732

Lookup: Consider the compound Fc1ccc2c(c1CNc1ncc(C3CCOCC3)c3nncn13)CCO2 [E-Y47] and give its recorded Clearance rate in vivo Clint In Vivo Extpl.
Found: 519

I = CC(=O)N1CCC(c2cnc(NCc3c(F)ccc4c3CCO4)n3cnnc23)CC1 [E-Y50]
II = O=C(C1CCOCC1)N1CC=C(c2cnc(NCc3c(F)ccc4c3CCO4)n3cnnc23)CC1 [E-Y43]
III = CN(C)CC(=O)N1CC=C(c2cnc(NCc3c(F)ccc4c3CCO4)n3cnnc23)CC1 [E-Y54-H]
IV = O=C(CN1CCOCC1)N1CC=C(c2cnc(NCc3c(F)ccc4c3CCO4)n3cnnc23)CC1 [E-Y40]
Lookup: Ascending by Clearance rate in vivo Clint In Vivo Extpl, please. Please write the labels in the order that was asked for.
Found: I, III, II, IV
